target: NP wt (Influenza A virus H1N1 (A/WSN/33), UniProt P15682 1-498); test: SPR; conditions: protein: recombinant; tags: C-terminal 6xHis; label: 5'-biotin; single strand
Measured endpoint: pKd
Answers are plain numbers, as −log10 of the molar value.

*Q* Retrieve pKd measured for UUUGUUACACACACACACGCUGUG (ssRNA) [Flu1 RNA 24-mer] and print it.
*A* 7.39
